- targetDesc: T1, FX activation peptide 12-mer SVAQATSSSGEA (human)
- T1 peptide: SVAQATSSSGEA-biotin
- measurementDescription: peptide ELISA
Ends that are not written are not given here.
Form field: ELISA signal relative to background (one value per entry).
The reply should be a number, written without any unit.

# binder, ELISA signal relative to background
measured = [
    ("Nb 701B09 (VHH, monovalent Nanobody; also called Nb 701609; not shown: C-terminal FLAG3 and HIS6 tag) VHH: EVQLVESGGGVVQPGGSLRLSCAASGRTFSTYAMGWFRQAPGKEREFVAAISWSGSRTYYADSVKGRFTISRDNSKNTVYLQMNSLRPEDTALYYCAADATPANGELDYWGQGTLVTVSS", 0.76),
    ("Nb 701D07 (VHH, monovalent Nanobody; not shown: C-terminal FLAG3 and HIS6 tag) VHH: EVQLVESGGGVVQPGGSLRLSCAASGGTLSRYAMGWFRQAPGKEREFVAAITRRGSRTYYADSVKGRFTISRDNSKNTVYLQMNSLRPEDTALYYCAADLAPGDYALDYWGQGTLVTVSS", 0.76),
    ("Nb 501A02 (VHH, monovalent control Nanobody; also called control Nanobody; not shown: C-terminal FLAG3 and HIS6 tag) VHH: EVQLVESGGGLVQPGGSLRLSCAASGFTFSNYEMSWVRQAPGKGLEWVSDIGSGGGVSTYYADSVKGRFTISRDNAKNTLYLQMNSLKPEDTAMYYCARGWTYGSDGMDYWGKGTLVTVSS", 0.74),
]

Let us examine a further case.
Task: Dear colleague, I am looking for the recorded ELISA signal relative to background of the following binder: Nb 701C06 (VHH, monovalent Nanobody; not shown: C-terminal FLAG3 and HIS6 tag) VHH: EVQLVESGGGVVQPGGSLRLSCAASGRTFSTYAMGWFRQAPGKEREFVAAISRRGGRTYYADSVKGRFTISRDNSKNTVYLQMNSLRPEDTALYYCAADATARDGLLDYWGQGTLVTVSS
Result: 0.92
